Measured Helix (alpha helical structure) by item
ASSAY: Circular dichroism, secondary structure (Bestsel)
Assay type: physicochemical
ASSAY CONTEXT: CD in 20 mM SDS
Where a SMILES comes first, the peptide text is derived from it. [ ]: non-standard residue; d: D form. d2Nal = N[C@H](Cc1ccc2ccccc2c1)C(=O)O

{"COMPOUND": "CC[C@H](C)[C@H](NC(=O)CNC(=O)[C@H](CO)NC(=O)[C@H](CC(C)C)NC(=O)[C@@H](N)Cc1ccccc1)C(=O)N[C@H](C(=O)NCC(=O)N[C@@H](CCSC)C(=O)N[C@@H](CC(C)C)C(=O)N[C@H](Cc1ccc2ccccc2c1)C(=O)N[C@@H](CCCCN)C(=O)N[C@@H](CC(C)C)C(=O)N[C@@H](Cc1ccccc1)C(N)=O)C(C)C [[G10n]-SHa (5)] (H-FLSGIVGML[d2Nal]KLF-NH2)", "SCALE UNIT": "%", "Helix (alpha helical structure)": 4.70}
{"COMPOUND": "CC[C@H](C)[C@H](NC(=O)CNC(=O)[C@H](CO)NC(=O)[C@H](CC(C)C)NC(=O)[C@@H](N)Cc1ccccc1)C(=O)N[C@H](C(=O)NCC(=O)N[C@@H](CCSC)C(=O)N[C@@H](CC(C)C)C(=O)N[C@@H](CCCCN)C(=O)N[C@@H](CCCCN)C(=O)N[C@@H](CC(C)C)C(=O)N[C@@H](Cc1ccccc1)C(N)=O)C(C)C [[G10K]-SHa (4)] (H-FLSGIVGMLKKLF-NH2)", "SCALE UNIT": "%", "Helix (alpha helical structure)": 88.70}
{"COMPOUND": "CC[C@H](C)[C@H](NC(=O)CNC(=O)[C@H](CO)NC(=O)[C@H](CC(C)C)NC(=O)[C@@H](N)Cc1ccccc1)C(=O)N[C@H](C(=O)NCC(=O)N[C@@H](CCSC)C(=O)N[C@@H](CC(C)C)C(=O)N[C@H](Cc1ccccc1)C(=O)N[C@@H](CCCCN)C(=O)N[C@@H](CC(C)C)C(=O)N[C@@H](Cc1ccccc1)C(N)=O)C(C)C [[G10f]-SHa (3)] (H-FLSGIVGML[dF]KLF-NH2)", "SCALE UNIT": "%", "Helix (alpha helical structure)": 84.60}
{"COMPOUND": "CC[C@H](C)[C@H](NC(=O)CNC(=O)[C@H](CO)NC(=O)[C@H](CC(C)C)NC(=O)[C@@H](N)Cc1ccccc1)C(=O)N[C@H](C(=O)NCC(=O)N[C@@H](CCSC)C(=O)N[C@@H](CC(C)C)C(=O)N[C@H](C)C(=O)N[C@@H](CCCCN)C(=O)N[C@@H](CC(C)C)C(=O)N[C@@H](Cc1ccccc1)C(N)=O)C(C)C [[G10a]-SHa (2)] (H-FLSGIVGML[dA]KLF-NH2)", "SCALE UNIT": "%", "Helix (alpha helical structure)": 82.4}
{"COMPOUND": "CC[C@H](C)[C@H](NC(=O)CNC(=O)[C@H](CO)NC(=O)[C@H](CC(C)C)NC(=O)[C@@H](N)Cc1ccccc1)C(=O)N[C@H](C(=O)NCC(=O)N[C@@H](CCSC)C(=O)N[C@@H](CC(C)C)C(=O)N[C@H](Cc1ccc(O)cc1)C(=O)N[C@@H](CCCCN)C(=O)N[C@@H](CC(C)C)C(=O)N[C@@H](Cc1ccccc1)C(N)=O)C(C)C [[G10y]-SHa (6)] (H-FLSGIVGML[dY]KLF-NH2)", "SCALE UNIT": "%", "Helix (alpha helical structure)": 53.80}
{"COMPOUND": "CC[C@H](C)[C@H](NC(=O)CNC(=O)[C@H](CO)NC(=O)[C@H](CC(C)C)NC(=O)[C@@H](N)Cc1ccccc1)C(=O)N[C@H](C(=O)NCC(=O)N[C@@H](CCSC)C(=O)N[C@@H](CC(C)C)C(=O)NCC(=O)N[C@@H](CCCCN)C(=O)N[C@@H](CC(C)C)C(=O)N[C@@H](Cc1ccccc1)C(N)=O)C(C)C [Temporin-SHa (1), reference compound] (H-FLSGIVGMLGKLF-NH2)", "SCALE UNIT": "%", "Helix (alpha helical structure)": 49.5}

Measured values drawn from paper PMC11350846 for this set.
